# Test system: HCT-8
# Procedure Text: Anticancer activity against Homo sapiens (human) HCT8 cells assessed as growth inhibition at 25 ug/ml after 72 hr by MTT assay
# Format: functional
# Applied Conditions: HCT-8, 72 h, read-out: GI
Quantity: inhibition of growth at 25 µg/mL (%)

| Query Smiles | Units Of Measure | Observed Result |
| --- | --- | --- |
| O=C1CSC(=O)N1Cc1c2ccccc2nc2ccccc12 | % | 42 |
| COc1ccc(/C=C2\SC(=O)N(Cc3c4ccccc4nc4ccccc34)C2=O)cc1 | % | 86.7 |
| O=C1S/C(=C\c2ccc(Br)cc2)C(=O)N1Cc1c2ccccc2nc2ccccc12 | % | 96.6 |
| COc1ccc(/C=C2\SC(=O)N(Cc3c4ccccc4nc4ccccc34)C2=O)cc1Br | % | 72.5 |
| Cc1ccc(/C=C2\SC(=O)N(Cc3c4ccccc4nc4ccccc34)C2=O)cc1 | % | 51.3 |
| O=C1S/C(=C\c2c3ccccc3nc3ccccc23)C(=O)N1Cc1c2ccccc2nc2ccccc12 | % | 92.4 |
| CS(=O)(=O)c1ccc(/C=C2\SC(=O)N(Cc3c4ccccc4nc4ccccc34)C2=O)cc1 | % | 64.3 |
| O=C1S/C(=C\c2ccc(Cl)cc2)C(=O)N1Cc1c2ccccc2nc2ccccc12 | % | 37.8 |

Entry source: ChEMBL document CHEMBL3044963
